# TARGET OR SYSTEM: T1, rat amylin receptor (rat calcitonin receptor + rat RAMP 3) (rat, UniProt P32214 25-516; Q9JJ73 23-147)
# T1 construct: whole, on cells; membranes of transiently transfected BHK tk'ts 13 cells (Assay VI); also called rAmylin-R; rat amylin 3(a) receptor
# T1 sequence (looked up) 1: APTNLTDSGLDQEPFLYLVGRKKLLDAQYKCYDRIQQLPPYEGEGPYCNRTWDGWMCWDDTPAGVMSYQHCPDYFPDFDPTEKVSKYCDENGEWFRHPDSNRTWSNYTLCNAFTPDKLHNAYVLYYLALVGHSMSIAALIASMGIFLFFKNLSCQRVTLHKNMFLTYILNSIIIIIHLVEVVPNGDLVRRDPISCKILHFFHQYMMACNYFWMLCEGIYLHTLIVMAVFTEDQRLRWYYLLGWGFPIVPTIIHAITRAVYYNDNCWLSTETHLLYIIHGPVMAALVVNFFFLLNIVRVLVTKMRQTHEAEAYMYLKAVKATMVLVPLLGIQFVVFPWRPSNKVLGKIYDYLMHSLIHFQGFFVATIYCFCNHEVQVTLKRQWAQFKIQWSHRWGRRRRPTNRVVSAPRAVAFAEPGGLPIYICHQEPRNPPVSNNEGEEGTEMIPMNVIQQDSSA
# T1 sequence (looked up) 2: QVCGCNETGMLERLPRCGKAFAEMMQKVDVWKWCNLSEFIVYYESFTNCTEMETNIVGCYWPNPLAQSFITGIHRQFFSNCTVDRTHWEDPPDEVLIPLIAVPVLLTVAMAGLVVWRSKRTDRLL
# EXPERIMENTAL DETAILS: SPA competition with 125I-rat amylin, membranes of BHK cells with rat calcitonin receptor + rat RAMP3 (Assay VI)
Numbered stars: 1 amine (or outer) side, 2 acyl side, 3 side chain; on linkers, the order of the positions; unused ones are H or OH. Bridge positions count the residues as written; N and C are the ends. Side chains are listed from the residue outwards. Ends that are not written are not given here. * marks the point of attachment. C20 diacid = O=C(O)CCCCCCCCCCCCCCCCCCC(=O)*; γGlu = O=C(O)[C@H](CCC(=O)[*:2])N[*:1]; AEEA = NCCOCCOCC(=O)O
METRIC NAME: IC50 (nM)

Below, 5 binders whose answers are already recorded.
BINDER	METRIC NAME	OBSERVED RESULT
{C20 diacid-γGlu}-KCNTATCATQRLAEFLRHSSPNFGAIPSSTNVGSRTY-NH2 (disulfide 2-7 (inferred), analogue of human amylin; also called compound 16)	IC50	1.21
KCNTATCATQRLANFLRHSSPNFGAIPSSTNVGHNTY (C20 diacid-gGlu on the alpha amino group of the N-terminal residue (Lys 1); disulfide bridge between the two Cys residues; C-terminal amide, analogue of human amylin; also called compound 40) [N^α1-[(4S)-4-carboxy-4-(19-carboxynonadecanoylamino)butanoyl]-[Arg17,Pro21,Pro27,His34]-h-amylin]	IC50	1.5
K([γGlu-C20 diacid])RCNTATCATQRLANFLRHSSPNFGAIPSSTNVGSHTY-NH2 (disulfide 3-8 (inferred), analogue of human amylin extended by Lys at the N-terminus; also called compound 44)	IC50	0.369
K([γGlu-γGlu-C20 diacid])CNTATCATQRLADFLRHSSPNFGAPLSSTNVGSDTY-NH2 (disulfide 2-7 (inferred), analogue of human amylin; also called compound 1)	IC50	1.3
{C20 diacid-γGlu}-KCNTATCATQRLAHFLRHSSPNFGAIPSSTNVGSETY-NH2 (disulfide 2-7 (inferred), analogue of human amylin; also called compound 30)	IC50	3.14

(a) K([γGlu-C20 diacid])CNTATCATQRLAEFLRHSSPNFGAIPSSTNVGSRTY-NH2 (disulfide 2-7 (inferred), analogue of human amylin; also called compound 51)
(b) K([γGlu-γGlu-C20 diacid])CNTATCATQRLADFLRHSSPNFGAIPSSTNVGSRTY-NH2 (disulfide 2-7 (inferred), analogue of human amylin; also called compound 52)
Query :: Compare the recorded IC50 of a and b ; state which is larger. Answer by stating the label of the chosen item.
Result :: a
(a: 0.523 nM, b: 0.335 nM)

(P) {C20 diacid-γGlu}-KCNTATCATQRLANFLRHSSPNFGAIPSSTNVGPETY-NH2 (disulfide 2-7 (inferred), analogue of human amylin; also called compound 29)
(Q) K([AEEA-γGlu-C20 diacid])CNTATCATQRLANFLRHSSPNFGAIPSSTNVGPNTY-NH2 (disulfide 2-7 (inferred), analogue of human amylin; also called compound 50)
Query :: Form: Entry with minimum IC50 (choose one): P / Q Answer by stating the label of the chosen item.
Result :: Q
(Q: 0.069 nM, P: 0.322 nM)
